Assay: LDH cytotoxicity assay in 3D in vitro skin model
Format: cell-based
Conditions: 250 mg/mL CBD in olive oil, no UV, topical 24 h
quantity: cytotoxicity at 24 h, 250 mg/mL (%)

C=C(C)[C@@H]1CCC(C)=C[C@H]1c1c(O)cc(CCCCC)cc1O; 11

----------
Assay: LDH cytotoxicity assay in 3D in vitro skin model
Type: cell-based
Conditions: 30 mg/mL CBD in olive oil, no UV, topical 24 h; untreated=0%, Triton-X=100%
Protocol: A 3D in vitro skin model containing epidermal keratinocytes and dermal fibroblasts was used. Some tissues were irradiated with 200 mJ UVB/cm^2. Test materials were applied topically for 24 hours (after UVB exposure) and an MTT assay was used to check the viability of cells. […] Cytotoxicity was assessed with a lactate dehydrogenase (LDH) assay using media collected from the wells of the tissues. […]
quantity: cytotoxicity at 24 h, 30 mg/mL (%)

C=C(C)[C@@H]1CCC(C)=C[C@H]1c1c(O)cc(CCCCC)cc1O; 4
